- Test system: LTB4 production in calcium ionophore stimulated human blood
- assay_summary: Inhibition of calcium ionophore-induced LTB4 production in human blood (human whole blood assay)
- Format: cell-based
- test_parameters: human blood diluted 1:4; 15 minutes preincubation at 37° C.; calcium ionophore 20 mcg/ml, 10 minutes
Note to self: use 1 (yes) only for IC50 readings below 600 nM; a reading exactly at 600 nM still gets 0 (no).

INSERT INTO results (compound, assigned_category) VALUES
  ('CN(CCCOc1ccc(Oc2ccc(-c3nccs3)cc2)cc1)CCC(=O)O [Example 17]', '1 (yes)'),
  ('c1coc(-c2ccc(Oc3ccc(OCCN4CCCC4)cc3)cc2)n1 [Example 7]', '1 (yes)'),
  ('CCN(CCCOc1ccc(Oc2ccc(-c3ncco3)cc2)cc1)CCC(=O)O [Example 19]', '1 (yes)'),
  ('CN(CCCOc1ccc(Oc2ccc(-c3ncco3)cc2)cc1)CCC(=O)O [Example 18]', '1 (yes)'),
  ('CCOC(=O)C1CCN(CCOc2ccc(Oc3ccc(-c4ccccc4)cc3)cc2)CC1 [Example 11]', '0 (no)');

hey, is IC50 for c1ccc(-c2ccc(Oc3ccc(OCCN4CCCC4)cc3)cc2)cc1 [Example 8] lower than 600 nM or not?
1 (yes)

hey, is IC50 for O=C(O)C1CCN(CCOc2ccc(Oc3ccc(-c4ccccc4)cc3)cc2)CC1 [Example 12] lower than 600 nM or not?
1 (yes)

hey, is IC50 for COC(=O)CCN(C)CCCOc1ccc(Oc2ccc(-c3ccccc3)cc2)cc1 [Example 13] lower than 600 nM or not?
0 (no)

hey, is IC50 for c1cc(Oc2ccc(C3=NCCO3)cc2)ccc1OCCN1CCCC1 [Example 10] lower than 600 nM or not?
1 (yes)

hey, is IC50 for CN(CCCOc1ccc(Oc2ccc(-c3ccccc3)cc2)cc1)CCC(=O)O [Example 14] lower than 600 nM or not?
1 (yes)
